# experimental system: Porcine ventricle myofibrils (ventricular myosin ATPase) (Sus scrofa, UniProt P79293)
# Construct: Myofibrils from porcine cardiac muscle was isolated from the left ventricle of Yucatan minipigs; tissue Exemplar Genetics; host or cells: left ventricle of Yucatan minipigs, myofibrils prepared in house
# Sequence (P79293 whole entry): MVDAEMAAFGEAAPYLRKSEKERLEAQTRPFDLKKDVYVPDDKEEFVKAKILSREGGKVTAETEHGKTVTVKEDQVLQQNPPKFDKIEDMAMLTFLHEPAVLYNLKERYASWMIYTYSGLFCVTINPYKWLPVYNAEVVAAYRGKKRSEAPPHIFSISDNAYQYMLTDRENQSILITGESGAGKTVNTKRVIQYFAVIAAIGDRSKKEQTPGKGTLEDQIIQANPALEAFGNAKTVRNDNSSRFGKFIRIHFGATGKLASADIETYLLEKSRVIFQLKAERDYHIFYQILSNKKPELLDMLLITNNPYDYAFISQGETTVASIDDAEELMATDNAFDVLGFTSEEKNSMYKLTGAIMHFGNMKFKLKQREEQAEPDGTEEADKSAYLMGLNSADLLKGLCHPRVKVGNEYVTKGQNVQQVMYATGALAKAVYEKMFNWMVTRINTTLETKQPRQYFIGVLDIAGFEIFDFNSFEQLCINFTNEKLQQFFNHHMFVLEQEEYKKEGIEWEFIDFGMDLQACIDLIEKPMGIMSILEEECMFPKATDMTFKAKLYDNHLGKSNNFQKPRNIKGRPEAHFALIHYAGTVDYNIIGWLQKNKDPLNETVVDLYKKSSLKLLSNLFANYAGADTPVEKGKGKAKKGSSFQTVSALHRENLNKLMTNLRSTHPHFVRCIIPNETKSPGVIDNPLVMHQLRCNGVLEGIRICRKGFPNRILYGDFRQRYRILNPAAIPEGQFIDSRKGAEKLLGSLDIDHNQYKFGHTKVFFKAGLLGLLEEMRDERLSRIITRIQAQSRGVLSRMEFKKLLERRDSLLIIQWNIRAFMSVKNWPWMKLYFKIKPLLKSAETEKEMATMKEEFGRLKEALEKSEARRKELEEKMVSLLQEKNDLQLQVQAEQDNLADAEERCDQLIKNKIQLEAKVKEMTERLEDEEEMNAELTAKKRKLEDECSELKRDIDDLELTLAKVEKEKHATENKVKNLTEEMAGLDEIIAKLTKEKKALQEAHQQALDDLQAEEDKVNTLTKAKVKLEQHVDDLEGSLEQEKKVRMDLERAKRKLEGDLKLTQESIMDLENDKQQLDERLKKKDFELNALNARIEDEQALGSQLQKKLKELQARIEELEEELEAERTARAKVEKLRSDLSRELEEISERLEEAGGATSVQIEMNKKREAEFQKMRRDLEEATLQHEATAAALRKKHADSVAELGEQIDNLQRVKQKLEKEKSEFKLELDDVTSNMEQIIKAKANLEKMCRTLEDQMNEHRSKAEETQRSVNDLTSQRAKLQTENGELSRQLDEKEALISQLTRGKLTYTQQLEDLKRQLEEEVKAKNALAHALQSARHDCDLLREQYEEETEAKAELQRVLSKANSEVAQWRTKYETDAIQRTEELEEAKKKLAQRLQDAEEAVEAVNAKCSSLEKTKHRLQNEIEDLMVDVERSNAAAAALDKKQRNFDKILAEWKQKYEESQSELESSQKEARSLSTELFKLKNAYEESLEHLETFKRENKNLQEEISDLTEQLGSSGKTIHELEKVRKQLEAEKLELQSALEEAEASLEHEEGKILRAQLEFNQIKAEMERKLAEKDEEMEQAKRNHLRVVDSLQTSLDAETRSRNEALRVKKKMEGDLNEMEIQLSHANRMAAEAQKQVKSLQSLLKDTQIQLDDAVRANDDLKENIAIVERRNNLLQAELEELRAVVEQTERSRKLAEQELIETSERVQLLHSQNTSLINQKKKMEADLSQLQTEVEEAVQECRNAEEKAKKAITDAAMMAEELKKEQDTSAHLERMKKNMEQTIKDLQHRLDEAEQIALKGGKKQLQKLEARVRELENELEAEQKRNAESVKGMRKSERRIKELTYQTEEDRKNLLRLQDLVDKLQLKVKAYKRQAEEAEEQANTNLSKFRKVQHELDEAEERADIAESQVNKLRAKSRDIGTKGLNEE
# experiment description: Myofibril ATPase assay, porcine ventricle myofibrils
# Format: biochemical, porcine (Yucatan minipigs)
# run conditions: porcine ventricle myofibrils; Y75 value
# Experimental: Example 1. Myofibril ATPase Assay Myofibril ATPase assays are known in the art to be useful in evaluating small molecules for the treatment of HCM and other cardiac indications. Myosin ATPase activity is assessed by using a coupled reaction system, in which ADP generated by the myosin ATPase function is coupled to the disappearance of NADH through the pyruvate kinase/lactate dehydrogenase (PK-LDH) system. […]
attribute measured: Ventricular EC25 (µM)
Express your answer in µM, writing the number without its unit.

# example entries with known answers
Cc1c(CC(=O)N[C@@H](C)c2ccc(C#N)cn2)c(=O)[nH]c2ccc(C(F)(F)F)nc12; 30.78
Cc1nc(C#N)ncc1[C@H](C)NC(=O)Cc1c(C)c2c(C)nccc2[nH]c1=O; 100.00
Cc1c(C(C)C(=O)N[C@@H](C)c2ccc(F)cc2F)c(=O)[nH]c2ccnc(C#N)c12 (stereo partly shown); 2.83
COc1cccc([C@H](C)NC(=O)Cc2c(C)c3c(C)nccc3[nH]c2=O)n1 (single isomer, unassigned); 100.00
C[C@H](NC(=O)Cc1cc2c(C(F)(F)F)nccc2[nH]c1=O)c1ccc(F)cc1F; 19.10
Cc1cc(F)cc(F)c1[C@H](C)NC(=O)Cc1c(C)c2c(C)nccc2[nH]c1=O (single isomer, unassigned); 2.08

What the record says about Cc1cc(F)ccc1[C@H](C)NC(=O)Cc1c(C)c2c(C)nccc2[nH]c1=O : Ventricular EC25 is 0.33

====

# Test system: Porcine atria myofibrils (atrial myosin ATPase)
# experiment description: Myofibril ATPase assay, porcine atria myofibrils
# Type: biochemical
# run conditions: Y75 value (no ‡ mark); porcine atria myofibrils
attribute measured: Atrial EC25 (nM)
Express your answer in nM, writing the number without its unit.

Cc1c(CC(=O)NC(C)c2cnc(C#N)cn2)c(=O)[nH]c2ccc(F)c(F)c12 (stereo in doubt); 60
Cc1c(CC(=O)N[C@@H](C)c2ccc(C#N)cn2)c(=O)[nH]c2ccc(F)c(C#N)c12; 50
Cc1c(CC(=O)N[C@@H](C)c2cnc(C#N)nc2)c(=O)[nH]c2ccc(F)cc12; 170
Cc1c(F)ccc2[nH]c(=O)c(C(F)(F)C(=O)N[C@@H](C)c3ncc(C#N)cc3F)c(C)c12 (single isomer, unassigned); 190
Cc1c(CC(=O)N[C@H](C)c2ncc(C#N)cc2F)c(=O)[nH]c2ccc(F)cc12; 540
Cc1c(CC(=O)N[C@H](C)c2ncc(C#N)cc2F)c(=O)[nH]c2cc(F)c(F)cc12; 140

Next item in the queue.
What the record says about N#Cc1cnc2c(c1)OC[C@@H]2NC(=O)Cc1cc2c(F)c(F)ccc2[nH]c1=O (single isomer, unassigned) : Atrial EC25 is 210

====

# Test system: Rabbit Psoas myofibrils (skeletal myosin ATPase)
# experiment description: Myofibril ATPase assay, rabbit psoas (skeletal) myofibrils
# Assay type: biochemical
# run conditions: rabbit psoas myofibrils; Y75 value
# Description: Example 1. Myofibril ATPase Assay Myofibril ATPase assays are known in the art to be useful in evaluating small molecules for the treatment of HCM and other cardiac indications. Myosin ATPase activity is assessed by using a coupled reaction system, in which ADP generated by the myosin ATPase function is coupled to the disappearance of NADH through the pyruvate kinase/lactate dehydrogenase (PK-LDH) system. […]
attribute measured: Skeletal EC25 (µM)
Express your answer in µM, writing the number without its unit.

Cc1c(CC(=O)N[C@H](C)c2ncc(C#N)cc2F)c(=O)[nH]c2ccnc(C(F)(F)F)c12 (single isomer, unassigned); 0.27
Cc1c(CC(=O)N[C@@H](C)c2ccc(F)cc2F)c(=O)[nH]c2ccnc(C(F)(F)F)c12; 0.01
COc1ncc2[nH]c(=O)c(CC(=O)N[C@@H](C)c3ccc(F)cc3F)cc2n1; 100
Cc1c(CC(=O)N[C@H](CO)c2ccc(F)cc2F)c(=O)[nH]c2ccnc(C#N)c12; 4.20
Cc1nccc2[nH]c(=O)c(CC(=O)N[C@H](CO)c3ccc(C#N)cc3F)c(C)c12 (single isomer, unassigned); 2.87

What the record says about COc1ccc([C@H](C)NC(=O)Cc2c(C)c3c(C)nccc3[nH]c2=O)cn1 (single isomer, unassigned) : Skeletal EC25 is 100.00

What the record says about C[C@H](NC(=O)Cc1cc2c(C3CC3)nccc2[nH]c1=O)c1ccc(F)cc1F : Skeletal EC25 is 0.47

What the record says about C[C@@H](NC(=O)Cc1c(Cl)c2cnccc2[nH]c1=O)c1ccc(C#N)cn1 : Skeletal EC25 is 9.12
